target: Rat NHE-3 (Rattus norvegicus); construct: expressed in transfected cells; host or cells: Opossum kidney (OK) cells (ATCC), transfected by electroporation; test: Cell-based assay of NHE-3 activity (rat NHE-3 prompt inhibition); settings: OK cells with rat NHE-3 gene, compound present during pH recovery
Sequence (P26433 29-831): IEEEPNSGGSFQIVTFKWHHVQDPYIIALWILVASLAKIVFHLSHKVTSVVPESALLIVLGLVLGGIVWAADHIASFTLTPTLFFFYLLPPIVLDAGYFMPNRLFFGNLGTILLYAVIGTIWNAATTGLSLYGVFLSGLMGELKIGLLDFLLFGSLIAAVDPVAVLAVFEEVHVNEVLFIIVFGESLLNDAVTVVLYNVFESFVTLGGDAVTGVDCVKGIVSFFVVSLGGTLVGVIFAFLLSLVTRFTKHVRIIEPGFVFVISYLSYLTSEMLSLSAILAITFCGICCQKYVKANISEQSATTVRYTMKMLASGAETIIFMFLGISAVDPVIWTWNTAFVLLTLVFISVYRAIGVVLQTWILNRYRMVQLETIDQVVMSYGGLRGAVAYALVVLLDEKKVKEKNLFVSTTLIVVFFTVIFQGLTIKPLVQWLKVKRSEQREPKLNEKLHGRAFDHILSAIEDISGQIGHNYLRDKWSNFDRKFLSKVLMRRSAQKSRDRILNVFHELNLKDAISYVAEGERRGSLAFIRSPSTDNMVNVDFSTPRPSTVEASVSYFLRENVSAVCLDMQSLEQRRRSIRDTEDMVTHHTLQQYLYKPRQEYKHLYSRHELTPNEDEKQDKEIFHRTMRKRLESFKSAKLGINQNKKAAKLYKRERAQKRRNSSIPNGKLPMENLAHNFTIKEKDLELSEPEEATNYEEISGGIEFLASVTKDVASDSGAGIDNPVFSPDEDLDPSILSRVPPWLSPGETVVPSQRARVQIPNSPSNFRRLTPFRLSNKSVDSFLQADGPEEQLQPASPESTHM
endpoint.name: Rat NHE3 pIC50 (prompt)

Some entries whose results are on file:
Input line: Fill in: Rat NHE3 pIC50 (prompt) on Rat NHE-3 (Rattus norvegicus), entry CN1Cc2c(Cl)cc(Cl)cc2[C@H](c2cccc(S(=O)(=O)NCCOCCOCCNC(=O)CCC(CCC(=O)NCCOCCOCCNS(=O)(=O)c3cccc([C@@H]4CN(C)Cc5c(Cl)cc(Cl)cc54)c3)(CCC(=O)NCCOCCOCCNS(=O)(=O)c3cccc([C@@H]4CN(C)Cc5c(Cl)cc(Cl)cc54)c3)NC(=O)Cn3ccnc3)c2)C1
Output line: B (B NHE3 pIC50 5-7)

Input line: Fill in: Rat NHE3 pIC50 (prompt) on Rat NHE-3 (Rattus norvegicus), entry CN1Cc2c(Cl)cc(Cl)cc2[C@H](c2cccc(S(=O)(=O)N(CCO)CCOCCOCCNC(=O)NCCCN(CCCNC(=O)NCCOCCOCCN(CCO)S(=O)(=O)c3cccc([C@@H]4CN(C)Cc5c(Cl)cc(Cl)cc54)c3)CCCNC(=O)NCCOCCOCCN(CCO)S(=O)(=O)c3cccc([C@@H]4CN(C)Cc5c(Cl)cc(Cl)cc54)c3)c2)C1
Output line: C (C NHE3 pIC50 > 7)

Input line: Fill in: Rat NHE3 pIC50 (prompt) on Rat NHE-3 (Rattus norvegicus), entry CN1Cc2c(Cl)cc(Cl)cc2[C@H](c2cccc(S(=O)(=O)NCCOCCOCCN(C)C(=O)CCC(N)(CCC(=O)N(C)CCOCCOCCNS(=O)(=O)c3cccc([C@@H]4CN(C)Cc5c(Cl)cc(Cl)cc54)c3)CCC(=O)N(C)CCOCCOCCNS(=O)(=O)c3cccc([C@@H]4CN(C)Cc5c(Cl)cc(Cl)cc54)c3)c2)C1
Output line: C (C NHE3 pIC50 > 7)

Input line: Fill in: Rat NHE3 pIC50 (prompt) on Rat NHE-3 (Rattus norvegicus), entry CC(O)C(NC(=O)NC(CCC(=O)NCCOCCOCCNS(=O)(=O)c1cccc(C2CN(C)Cc3c(Cl)cc(Cl)cc32)c1)(CCC(=O)NCCOCCOCCNS(=O)(=O)c1cccc(C2CN(C)Cc3c(Cl)cc(Cl)cc32)c1)CCC(=O)NCCOCCOCCNS(=O)(=O)c1cccc(C2CN(C)Cc3c(Cl)cc(Cl)cc32)c1)C(N)=O (stereo not drawn)
Output line: C (C NHE3 pIC50 > 7)

Input line: Fill in: Rat NHE3 pIC50 (prompt) on Rat NHE-3 (Rattus norvegicus), entry CN1Cc2c(Cl)cc(Cl)cc2[C@H](c2cccc(S(=O)(=O)NCCOCCOCCOCCNC(=O)NCCCN(CCCNC(=O)NCCOCCOCCOCCNS(=O)(=O)c3cccc([C@@H]4CN(C)Cc5c(Cl)cc(Cl)cc54)c3)CCCNC(=O)NCCOCCOCCOCCNS(=O)(=O)c3cccc([C@@H]4CN(C)Cc5c(Cl)cc(Cl)cc54)c3)c2)C1
Output line: C (C NHE3 pIC50 > 7)

Continue with the next compound.
Input line: Fill in: Rat NHE3 pIC50 (prompt) on Rat NHE-3 (Rattus norvegicus), entry CN1Cc2c(Cl)cc(Cl)cc2[C@H](c2cccc(S(=O)(=O)NCCOCCOCCNC(=O)NCCCC(CCCNC(=O)NCCOCCOCCNS(=O)(=O)c3cccc([C@@H]4CN(C)Cc5c(Cl)cc(Cl)cc54)c3)(CCCNC(=O)NCCOCCOCCNS(=O)(=O)c3cccc([C@@H]4CN(C)Cc5c(Cl)cc(Cl)cc54)c3)NC(=O)NC[C@H](O)[C@@H](O)[C@H](O)[C@H](O)CO)c2)C1
Output line: B (B NHE3 pIC50 5-7)

====

As shown below, each of these molecules has a reported IC50 value.
molecular target: human NHE-3 (Homo sapiens); construct: expressed in transfected cells; host or cells: Opossum kidney (OK) cells (ATCC), transfected by electroporation; experiment: Cell-based assay of NHE-3 activity (human NHE3 inhibition assay); settings: OK cells with human NHE-3 gene, BCECF pH dye, 0-30 μM test compound; read-out: Human NHE3 pIC50 (converted)
Sequence (P48764 26-834): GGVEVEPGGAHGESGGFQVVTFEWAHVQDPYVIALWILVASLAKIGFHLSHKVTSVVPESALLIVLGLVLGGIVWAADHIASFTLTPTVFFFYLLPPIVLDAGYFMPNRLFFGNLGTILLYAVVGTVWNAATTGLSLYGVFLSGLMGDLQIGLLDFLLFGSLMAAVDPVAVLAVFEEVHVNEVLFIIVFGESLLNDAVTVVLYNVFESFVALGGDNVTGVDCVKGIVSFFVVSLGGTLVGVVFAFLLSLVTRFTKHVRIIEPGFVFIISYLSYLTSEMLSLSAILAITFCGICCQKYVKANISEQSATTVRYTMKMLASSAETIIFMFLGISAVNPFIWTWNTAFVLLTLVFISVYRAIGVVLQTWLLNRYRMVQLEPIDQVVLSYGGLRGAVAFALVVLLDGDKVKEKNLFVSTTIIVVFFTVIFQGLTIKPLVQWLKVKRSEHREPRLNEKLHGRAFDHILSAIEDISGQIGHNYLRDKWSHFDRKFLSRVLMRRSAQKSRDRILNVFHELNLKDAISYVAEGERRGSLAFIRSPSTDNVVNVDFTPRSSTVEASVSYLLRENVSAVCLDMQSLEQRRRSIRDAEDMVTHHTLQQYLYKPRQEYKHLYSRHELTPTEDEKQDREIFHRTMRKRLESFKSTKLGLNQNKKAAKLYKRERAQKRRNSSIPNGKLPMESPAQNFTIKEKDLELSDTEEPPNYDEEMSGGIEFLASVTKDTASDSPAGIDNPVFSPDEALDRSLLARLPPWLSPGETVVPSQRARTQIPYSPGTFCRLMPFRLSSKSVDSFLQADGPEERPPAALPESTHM

Some entries whose results are on file:
Input line: Return the recorded IC50 value; entry: CN1Cc2c(Cl)cc(Cl)cc2[C@H](c2cccc(S(=O)(=O)NCCOCCOCCOCCNC(=O)CCC(CCC(=O)NCCOCCOCCOCCNS(=O)(=O)c3cccc([C@@H]4CN(C)Cc5c(Cl)cc(Cl)cc54)c3)(CCC(=O)NCCOCCOCCOCCNS(=O)(=O)c3cccc([C@@H]4CN(C)Cc5c(Cl)cc(Cl)cc54)c3)NC(=O)c3ccc(-c4ccc(Cl)cc4)cc3)c2)C1
Output line: > 10 µM

Input line: Return the recorded IC50 value; entry: CN1Cc2c(Cl)cc(Cl)cc2[C@H](c2cccc(S(=O)(=O)NCCOCCOCCNC(=O)CCC(CCC(=O)NCCOCCOCCNS(=O)(=O)c3cccc([C@@H]4CN(C)Cc5c(Cl)cc(Cl)cc54)c3)(CCC(=O)NCCOCCOCCNS(=O)(=O)c3cccc([C@@H]4CN(C)Cc5c(Cl)cc(Cl)cc54)c3)[N+](=O)[O-])c2)C1
Output line: 0.1 to 10 µM

Continue with the next molecule.
Input line: Return the recorded IC50 value; entry: CN1Cc2c(Cl)cc(Cl)cc2[C@H](c2cccc(S(=O)(=O)NCCOCCOCCOCCNC(=O)CCC(N)(CCC(=O)NCCOCCOCCOCCNS(=O)(=O)c3cccc([C@@H]4CN(C)Cc5c(Cl)cc(Cl)cc54)c3)CCC(=O)NCCOCCOCCOCCNS(=O)(=O)c3cccc([C@@H]4CN(C)Cc5c(Cl)cc(Cl)cc54)c3)c2)C1
Output line: < 0.1 µM

====

molecular target: Rat NHE-3 (Rattus norvegicus); construct: expressed in transfected cells; host or cells: Opossum kidney (OK) cells (ATCC), transfected by electroporation; assay: Cell-based assay of NHE-3 activity (persistent inhibition, after washout); details: OK cells with rat NHE-3 gene, 60 min incubation, recovery initiated 40 min after compound washout
endpoint.name: Rat NHE3 pIC50 (persistent)

Input line: Return the recorded Rat NHE3 pIC50 (persistent) value; entry: CN1Cc2c(Cl)cc(Cl)cc2[C@H](c2cccc(S(=O)(=O)NCCOCCOCCNC(=O)CCC(CCC(=O)NCCOCCOCCNS(=O)(=O)c3cccc([C@@H]4CN(C)Cc5c(Cl)cc(Cl)cc54)c3)(CCC(=O)NCCOCCOCCNS(=O)(=O)c3cccc([C@@H]4CN(C)Cc5c(Cl)cc(Cl)cc54)c3)NC(=O)CCC(=O)O)c2)C1 [Example 40]
Output line: C (C NHE3 pIC50 > 7)

Input line: Return the recorded Rat NHE3 pIC50 (persistent) value; entry: CN1Cc2c(Cl)cc(Cl)cc2[C@H](c2cccc(S(=O)(=O)NCCOCCOCCN(C)C(=O)CCC(N)(CCC(=O)N(C)CCOCCOCCNS(=O)(=O)c3cccc([C@@H]4CN(C)Cc5c(Cl)cc(Cl)cc54)c3)CCC(=O)N(C)CCOCCOCCNS(=O)(=O)c3cccc([C@@H]4CN(C)Cc5c(Cl)cc(Cl)cc54)c3)c2)C1 [Example 67]
Output line: C (C NHE3 pIC50 > 7)

====

target: human NHE-3 (Homo sapiens); construct: expressed in transfected cells; host or cells: Opossum kidney (OK) cells (ATCC), transfected by electroporation; assay: Cell-based assay of NHE-3 activity (human NHE3 inhibition assay); settings: OK cells with human NHE-3 gene, BCECF pH dye, 0-30 μM test compound; read-out: Human NHE3 pIC50 (converted)
endpoint.name: IC50

Input line: Return the recorded IC50 value; entry: CN1Cc2c(Cl)cc(Cl)cc2[C@H](c2cccc(S(=O)(=O)NCCOCCOCCNC(=O)CCC(N)(CCC(=O)NCCOCCOCCNS(=O)(=O)c3cccc([C@@H]4CN(C)Cc5c(Cl)cc(Cl)cc54)c3)CCC(=O)NCCOCCOCCNS(=O)(=O)c3cccc([C@@H]4CN(C)Cc5c(Cl)cc(Cl)cc54)c3)c2)C1 [Example 2]
Output line: < 100 nM

Input line: Return the recorded IC50 value; entry: CN1Cc2c(Cl)cc(Cl)cc2[C@H](c2cccc(S(=O)(=O)NCCOCCOCCNC(=O)CCC(CCC(=O)NCCOCCOCCNS(=O)(=O)c3cccc([C@@H]4CN(C)Cc5c(Cl)cc(Cl)cc54)c3)(CCC(=O)NCCOCCOCCNS(=O)(=O)c3cccc([C@@H]4CN(C)Cc5c(Cl)cc(Cl)cc54)c3)NC(N)=O)c2)C1 [Example 8]
Output line: < 100 nM

Input line: Return the recorded IC50 value; entry: CN1Cc2c(Cl)cc(Cl)cc2[C@H](c2cccc(S(=O)(=O)NCCOCCOCCOCCNC(=O)CCC(CCC(=O)NCCOCCOCCOCCNS(=O)(=O)c3cccc([C@@H]4CN(C)Cc5c(Cl)cc(Cl)cc54)c3)(CCC(=O)NCCOCCOCCOCCNS(=O)(=O)c3cccc([C@@H]4CN(C)Cc5c(Cl)cc(Cl)cc54)c3)NC(=O)Nc3ccccc3)c2)C1 [Example 13]
Output line: 100 to 10000 nM

Input line: Return the recorded IC50 value; entry: CN(C)CC(=O)NC(CCC(=O)NCCOCCOCCNS(=O)(=O)c1cccc([C@@H]2CN(C)Cc3c(Cl)cc(Cl)cc32)c1)(CCC(=O)NCCOCCOCCNS(=O)(=O)c1cccc([C@@H]2CN(C)Cc3c(Cl)cc(Cl)cc32)c1)CCC(=O)NCCOCCOCCNS(=O)(=O)c1cccc([C@@H]2CN(C)Cc3c(Cl)cc(Cl)cc32)c1 [Example 14]
Output line: < 100 nM

Continuing:
Input line: Return the recorded IC50 value; entry: CN1Cc2c(Cl)cc(Cl)cc2[C@H](c2cccc(S(=O)(=O)NCCOCCOCCNC(=O)CCC(CCC(=O)NCCOCCOCCNS(=O)(=O)c3cccc([C@@H]4CN(C)Cc5c(Cl)cc(Cl)cc54)c3)(CCC(=O)NCCOCCOCCNS(=O)(=O)c3cccc([C@@H]4CN(C)Cc5c(Cl)cc(Cl)cc54)c3)NC(=O)NCC(=O)O)c2)C1 [Example 7]
Output line: < 100 nM

Input line: Return the recorded IC50 value; entry: CN1Cc2c(Cl)cc(Cl)cc2[C@H](c2cccc(S(=O)(=O)NCCOCCOCCNC(=O)CCC(CCC(=O)NCCOCCOCCNS(=O)(=O)c3cccc([C@@H]4CN(C)Cc5c(Cl)cc(Cl)cc54)c3)(CCC(=O)NCCOCCOCCNS(=O)(=O)c3cccc([C@@H]4CN(C)Cc5c(Cl)cc(Cl)cc54)c3)NC(=O)NC(CO)(CO)CO)c2)C1 [Example 11]
Output line: 100 to 10000 nM

Input line: Return the recorded IC50 value; entry: CN1Cc2c(Cl)cc(Cl)cc2[C@H](c2cccc(S(=O)(=O)NCCOCCOCCNC(=O)NCCN(CCNC(=O)NCCOCCOCCNS(=O)(=O)c3cccc([C@@H]4CN(C)Cc5c(Cl)cc(Cl)cc54)c3)C(=O)CCCCCCCCCCC(=O)N(CCNC(=O)NCCOCCOCCNS(=O)(=O)c3cccc([C@@H]4CN(C)Cc5c(Cl)cc(Cl)cc54)c3)CCNC(=O)NCCOCCOCCNS(=O)(=O)c3cccc([C@@H]4CN(C)Cc5c(Cl)cc(Cl)cc54)c3)c2)C1 [Example 44]
Output line: > 10000 nM

Input line: Return the recorded IC50 value; entry: CN1Cc2c(Cl)cc(Cl)cc2[C@H](c2cccc(S(=O)(=O)NCCOCCOCCOCCNC(=O)CN(CCOCCOCCN(CC(=O)NCCOCCOCCOCCNS(=O)(=O)c3cccc([C@@H]4CN(C)Cc5c(Cl)cc(Cl)cc54)c3)CC(=O)NCCOCCOCCOCCNS(=O)(=O)c3cccc([C@@H]4CN(C)Cc5c(Cl)cc(Cl)cc54)c3)CC(=O)NCCOCCOCCOCCNS(=O)(=O)c3cccc([C@@H]4CN(C)Cc5c(Cl)cc(Cl)cc54)c3)c2)C1 [Example 42]
Output line: < 100 nM

Input line: Return the recorded IC50 value; entry: CN1Cc2c(Cl)cc(Cl)cc2[C@H](c2cccc(S(=O)(=O)NCCOCCOCCNC(=O)CCC(CCC(=O)NCCOCCOCCNS(=O)(=O)c3cccc([C@@H]4CN(C)Cc5c(Cl)cc(Cl)cc54)c3)(CCC(=O)NCCOCCOCCNS(=O)(=O)c3cccc([C@@H]4CN(C)Cc5c(Cl)cc(Cl)cc54)c3)NC(=O)NCCN3CCOCC3)c2)C1 [Example 17]
Output line: < 100 nM

Input line: Return the recorded IC50 value; entry: CN1Cc2c(Cl)cc(Cl)cc2[C@H](c2cccc(S(=O)(=O)NCCOCCOCCNC(=O)NCCN(CCNC(=O)NCCOCCOCCNS(=O)(=O)c3cccc([C@@H]4CN(C)Cc5c(Cl)cc(Cl)cc54)c3)C(=O)NCCCCCCCCCCCCNC(=O)N(CCNC(=O)NCCOCCOCCNS(=O)(=O)c3cccc([C@@H]4CN(C)Cc5c(Cl)cc(Cl)cc54)c3)CCNC(=O)NCCOCCOCCNS(=O)(=O)c3cccc([C@@H]4CN(C)Cc5c(Cl)cc(Cl)cc54)c3)c2)C1 [Example 45]
Output line: 100 to 10000 nM

Input line: Return the recorded IC50 value; entry: CN1Cc2c(Cl)cc(Cl)cc2[C@H](c2cccc(S(=O)(=O)NCCOCCOCCOCCNC(=O)CCC(CCC(=O)NCCOCCOCCOCCNS(=O)(=O)c3cccc([C@@H]4CN(C)Cc5c(Cl)cc(Cl)cc54)c3)(CCC(=O)NCCOCCOCCOCCNS(=O)(=O)c3cccc([C@@H]4CN(C)Cc5c(Cl)cc(Cl)cc54)c3)NCc3ccc(-c4ccc(Cl)cc4)cc3)c2)C1 [Example 19]
Output line: > 10000 nM
